- System: serum lipids and serum lipid hydroperoxide
- EXPERIMENTAL_PROTOCOL: Pharmacological test method A for anti-hyperlipidemic activity (serum lipids, 2 weeks feeding)
- Assay type: in vivo, male Wistar strain rats
- APPLIED_CONDITIONS: versus control group
- Description: Male Wistar strain rats (100±lg, each 10 rats were formed into a group) were used as test animals. […] Then, TC, HDL-C, TG, PL, and LPO in the serum were measured in the manner that will be described below. A TC kit-K (supplied by Nippon Shoji Kaisha, Ltd.) was used. […] The produced red quinone coloring matter is measured by colorimetry for absorbance at 500 nm using a spectrophotometer, thereby determining the TC: […]
# Lookup of reported TC % of diff. keyed by entry
Express your answer in %, writing the number without its unit.

// worked examples, TC % of diff. included
{"COMPOUND": "CC(C)=CCCC(C)C1CCC2(C)C3CCC4C(C)(C)C(OC(=O)c5ccccc5[N+](=O)[O-])CCC45CC35CCC12C (stereo not drawn) [Example 16, cycloartenyl-o-nitrobenzoate]", "TC % of diff. [%]": -10.1}
{"COMPOUND": "C=C(CCC(C)C1CCC2(C)C3CCC4C(C)(C)C(OC(=O)C=Cc5cccc(N)c5)CCC45CC35CCC12C)C(C)C (stereo not drawn) [Example 112]", "TC % of diff. [%]": -33.7}
{"COMPOUND": "CCOc1cc(C(=O)OC2CCC34CC35CCC3(C)C(C(C)CCC(C)=C(C)C)CCC3(C)C5CCC4C2(C)C)ccc1O (stereo not drawn) [Example 62, cyclobranyl-3-ethoxy-4-hydroxybenzoate]", "TC % of diff. [%]": 17.2}

[Q] Consider the compound C=C(CCC(C)C1CCC2(C)C3CCC4C(C)(C)C(OC(=O)c5cccc(N)c5)CCC45CC35CCC12C)C(C)C (stereo not drawn) [Example 100] . State its measured TC % of diff..
[A] -17.2

[Q] Annotate the compound CC(C)=C(C)CCC(C)C1CCC2(C)C3CCC4C(C)(C)C(OC(=O)c5cccnc5)CCC45CC35CCC12C (stereo not drawn) [Example 50, cyclobranylnicotinate] with its measured TC % of diff..
[A] -15.5

[Q] Note down TC % of diff. recorded for C=C(CCC(C)C1CCC2(C)C3CCC4C(C)(C)C(OC(=O)C=Cc5ccc(O)c(O)c5)CCC45CC35CCC12C)C(C)C (stereo not drawn) [Example 82]
[A] -9.8

[Q] Give recorded TC % of diff.. CC(C)=CCCC(C)C1CCC2(C)C3CCC4C(C)(C)C(OC(=O)C=Cc5ccc([N+](=O)[O-])cc5)CCC45CC35CCC12C (stereo not drawn) [Example 101]
[A] -33.6

[Q] Give the reported value of TC % of diff. for this record: CCCCC/C=C\C/C=C\CCCCCCCC(=O)OC1CCC23CC24CCC2(C)C(C(C)CCC(C)=C(C)C)CCC2(C)C4CCC3C1(C)C (stereo not drawn) [Example 51, cyclobranyllinolate]
[A] -18.6

[Q] Look up and state reported TC % of diff. for COc1cc(C=CC(=O)OC2CCC34CC35CCC3(C)C(C(C)CCC=C(C)C)CCC3(C)C5CCC4C2(C)C)ccc1O (stereo not drawn) [Example 100-1]
[A] -15.0

###

Measured TC % of diff. accompanies every entry in the list below.
- Tested on: serum lipids and serum lipid hydroperoxide
- EXPERIMENTAL_PROTOCOL: Pharmacological test method A for anti-hyperlipidemic activity (serum lipids, 2 weeks feeding)
- Assay type: in vivo, male Wistar strain rats
- APPLIED_CONDITIONS: versus control group
- Method: Male Wistar strain rats (100±lg, each 10 rats were formed into a group) were used as test animals. […] Then, TC, HDL-C, TG, PL, and LPO in the serum were measured in the manner that will be described below. A TC kit-K (supplied by Nippon Shoji Kaisha, Ltd.) was used. […] The produced red quinone coloring matter is measured by colorimetry for absorbance at 500 nm using a spectrophotometer, thereby determining the TC: […]
Kindly report the value followed by its unit.

Below are worked cases with known answers.
{"COMPOUND": "CC(C)=CCCC(C)C1CCC2(C)C3CCC4C(C)(C)C(OC(=O)c5cccc(N)c5)CCC45CC35CCC12C (stereo not drawn) [Example 23, cycloartenyl-m-aminobenzoate]", "ASSAY_READOUT": "TC % of diff.", "OBS_VALUE": "-11.7%"}
{"COMPOUND": "CC(C)=C(C)CCC(C)C1CCC2(C)C3CCC4C(C)(C)C(OC(=O)c5ccccc5O)CCC45CC35CCC12C (stereo not drawn) [Example 41, cyclobranyl-o-hydroxybenzoate]", "ASSAY_READOUT": "TC % of diff.", "OBS_VALUE": "19.1%"}
{"COMPOUND": "COc1cc(C(=O)OC2CCC34CC35CCC3(C)C(C(C)CCC=C(C)C)CCC3(C)C5CCC4C2(C)C)ccc1O (stereo not drawn) [Example 29, cycloartenyl-4-hydroxy-3-methoxybenzoate]", "ASSAY_READOUT": "TC % of diff.", "OBS_VALUE": "-15.5%"}
{"COMPOUND": "C=C(CCC(C)C1CCC2(C)C3CCC4C(C)(C)C(OC(=O)C=Cc5ccc(OC(C)=O)cc5)CCC45CC35CCC12C)C(C)C (stereo not drawn) [Example 83]", "ASSAY_READOUT": "TC % of diff.", "OBS_VALUE": "-11.5%"}
{"COMPOUND": "CC(C)=CCCC(C)C1CCC2(C)C3CCC4C(C)(C)C(OC(=O)c5cccc(O)c5)CCC45CC35CCC12C (stereo not drawn) [Example 12, cycloartenyl-m-hydroxybenzoate]", "ASSAY_READOUT": "TC % of diff.", "OBS_VALUE": "-10.0%"}

Continue with the next compound.
[Q] Report TC % of diff. for CC(C)=CCCC(C)C1CCC2(C)C3CCC4C(C)(C)C(OC(=O)C=Cc5cccc(N)c5)CCC45CC35CCC12C (stereo not drawn) [Example 108]
[A] -33.9%
